B1: ARL6IP1 (parent)
chain: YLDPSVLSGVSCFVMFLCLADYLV

- Variants of: B1
- assay text: protein stability index of a GFP-peptide fusion (GPS, HEK-293T) (PSI 1-6); higher = more stable;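 also: lentivirally expressed fusions sorted by FACS into six bins by GFP to DsRed ratio, PSI derived from sequencing read proportions per bin multiplied by bin number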
- experimental context: c terminus: a fixed tail appended
Classification field: enter label 1 for protein stability index values not below 3, label 0 for values below it.

> print(dat)
    variant.id  category
 1        L23Q   label 0
 2        Y22I   label 0
 3        M15F   label 0
 4        Y22L   label 0
 5        V10F   label 1
 6        C18N   label 0
 7        L19Q   label 0
 8        Y22Q   label 1
 9        D21F   label 1
10        A20C   label 1
